target: Aβ42 (Homo sapiens); test: Th-T (thioflavin-T) assay of Aβ42 aggregation; format: biochemical; conditions: concentration 20, unit not given; time-course reading M132
Sequence (P05067 672-713): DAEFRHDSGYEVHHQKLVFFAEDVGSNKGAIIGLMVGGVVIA
A collection of compounds and their measured Th-T fluorescence of Aβ42 with compound, mean of three wells (Fig. 7a source data)

Q. Entry C=C1CCC2C(C)(CCC=C(C)C)C(O)CCC2(C)C1Cc1c(OC)oc(C)c(C(=O)OC)c1=O (centres unmarked) [Compound 14] has what Th-T fluorescence of Aβ42 with compound, mean of three wells (Fig. 7a source data)?
A. 1.578

Q. Entry C=C1CC[C@@H]2[C@](C)(CC[C@H]3O[C@H](C=C(C)C)C[C@@]23C)[C@@H]1Cc1c(OC)oc(CO)c(C)c1=O [Compound 20] has what Th-T fluorescence of Aβ42 with compound, mean of three wells (Fig. 7a source data)?
A. 3.079

Q. Entry C=C1CC[C@@H]2[C@](C)(CC[C@H]3O[C@H](C=C(C)C)C[C@@]23C)[C@@H]1Cc1c(OC)oc(CO)c(C(=O)OC)c1=O [Compound 21] has what Th-T fluorescence of Aβ42 with compound, mean of three wells (Fig. 7a source data)?
A. 0.9585

Q. Entry C=C1CCC2C(C)(CCC=C(C)C)C(O)CCC2(C)C1Cc1c(OC)oc(CO)c(C(=O)OC)c1=O (centres unmarked) [Compound 13] has what Th-T fluorescence of Aβ42 with compound, mean of three wells (Fig. 7a source data)?
A. 1.024

Q. Entry C=C1CCC2C(C)(CCC=C(C)C)C(O)CCC2(C)C1Cc1c(OC)oc(CO)c(C)c1=O (centres unmarked) [Compound 12] has what Th-T fluorescence of Aβ42 with compound, mean of three wells (Fig. 7a source data)?
A. 2.206
